// provenance: ChEMBL document CHEMBL3259804

- METHOD: Clearance in Sprague-Dawley rat at 1 mg/kg, iv and 3 mg/kg, po
- Format: ADME, organism-based
- APPLIED_CONDITIONS: in vivo
Exercise: for every item that follows, state its recorded clearance.

Recorded clearance of Cc1c[nH]c2c(Nc3nc(N[C@@H]4CCCC[C@@H]4N)cc4nc[nH]c(=O)c34)cccc12 , please.
39 mL/min/kg

Recorded clearance of Cc1c[nH]c2c(Nc3nc(N[C@@H]4CCOC[C@@H]4N)cc4nc[nH]c(=O)c34)cccc12 , please.
112 mL/min/kg

Recorded clearance of N[C@H]1CCCC[C@H]1Nc1cc2nc[nH]c(=O)c2c(Nc2cccc3cc[nH]c23)n1 , please.
69 mL/min/kg

---

- SYSTEM: Voltage-gated inwardly rectifying potassium channel KCNH2 (Homo sapiens)
- Sequence (Q12809 whole entry): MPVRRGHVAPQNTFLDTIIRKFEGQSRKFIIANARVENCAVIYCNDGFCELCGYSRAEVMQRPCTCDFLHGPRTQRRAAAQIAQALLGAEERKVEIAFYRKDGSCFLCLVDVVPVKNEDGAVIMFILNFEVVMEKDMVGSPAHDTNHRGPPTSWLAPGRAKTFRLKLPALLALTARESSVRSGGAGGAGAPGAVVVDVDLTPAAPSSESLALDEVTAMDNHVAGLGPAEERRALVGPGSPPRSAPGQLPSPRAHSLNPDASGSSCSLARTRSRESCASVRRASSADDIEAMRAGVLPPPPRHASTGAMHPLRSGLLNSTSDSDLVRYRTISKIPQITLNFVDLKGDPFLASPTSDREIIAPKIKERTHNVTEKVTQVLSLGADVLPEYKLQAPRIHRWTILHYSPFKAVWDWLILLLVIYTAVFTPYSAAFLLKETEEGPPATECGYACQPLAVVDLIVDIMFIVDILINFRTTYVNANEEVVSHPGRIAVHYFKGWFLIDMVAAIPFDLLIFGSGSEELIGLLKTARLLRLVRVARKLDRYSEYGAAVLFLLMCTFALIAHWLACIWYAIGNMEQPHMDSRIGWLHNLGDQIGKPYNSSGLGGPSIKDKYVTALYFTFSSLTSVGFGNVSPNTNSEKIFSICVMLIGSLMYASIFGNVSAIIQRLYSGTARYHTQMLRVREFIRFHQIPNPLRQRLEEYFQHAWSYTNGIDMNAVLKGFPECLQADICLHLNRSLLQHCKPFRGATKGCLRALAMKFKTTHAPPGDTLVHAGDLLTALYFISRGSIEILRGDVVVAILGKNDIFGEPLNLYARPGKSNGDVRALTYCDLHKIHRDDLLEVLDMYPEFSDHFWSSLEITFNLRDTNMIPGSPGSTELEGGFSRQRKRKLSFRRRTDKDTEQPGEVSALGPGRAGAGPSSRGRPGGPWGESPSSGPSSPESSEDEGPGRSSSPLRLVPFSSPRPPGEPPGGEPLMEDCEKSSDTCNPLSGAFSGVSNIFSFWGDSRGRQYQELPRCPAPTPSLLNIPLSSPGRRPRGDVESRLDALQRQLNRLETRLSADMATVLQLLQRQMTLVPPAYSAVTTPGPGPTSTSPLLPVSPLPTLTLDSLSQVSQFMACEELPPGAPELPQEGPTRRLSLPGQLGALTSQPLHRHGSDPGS
- METHOD: Inhibition of human ERG by Q-patch assay
MEASURED_ENDPOINT: IC50 (µM)
Unit µM implied. Number only.

Reported IC50 for Voltage-gated inwardly rectifying potassium channel KCNH2 (Homo sapiens), given N[C@H]1CCCC[C@H]1Nc1cc2nc[nH]c(=O)c2c(Nc2cccc3c(Cl)c[nH]c23)n1 ?
20

Reported IC50 for Voltage-gated inwardly rectifying potassium channel KCNH2 (Homo sapiens), given N[C@H]1COCC[C@H]1Nc1cc2cc[nH]c(=O)c2c(Nc2cccc3cc[nH]c23)n1 ?
24.9

---

Exercise: for every item that follows, state its recorded IC50.
- SYSTEM: Tyrosine-protein kinase ZAP-70 (Homo sapiens, UniProt P43403)
- Sequence (P43403 whole entry): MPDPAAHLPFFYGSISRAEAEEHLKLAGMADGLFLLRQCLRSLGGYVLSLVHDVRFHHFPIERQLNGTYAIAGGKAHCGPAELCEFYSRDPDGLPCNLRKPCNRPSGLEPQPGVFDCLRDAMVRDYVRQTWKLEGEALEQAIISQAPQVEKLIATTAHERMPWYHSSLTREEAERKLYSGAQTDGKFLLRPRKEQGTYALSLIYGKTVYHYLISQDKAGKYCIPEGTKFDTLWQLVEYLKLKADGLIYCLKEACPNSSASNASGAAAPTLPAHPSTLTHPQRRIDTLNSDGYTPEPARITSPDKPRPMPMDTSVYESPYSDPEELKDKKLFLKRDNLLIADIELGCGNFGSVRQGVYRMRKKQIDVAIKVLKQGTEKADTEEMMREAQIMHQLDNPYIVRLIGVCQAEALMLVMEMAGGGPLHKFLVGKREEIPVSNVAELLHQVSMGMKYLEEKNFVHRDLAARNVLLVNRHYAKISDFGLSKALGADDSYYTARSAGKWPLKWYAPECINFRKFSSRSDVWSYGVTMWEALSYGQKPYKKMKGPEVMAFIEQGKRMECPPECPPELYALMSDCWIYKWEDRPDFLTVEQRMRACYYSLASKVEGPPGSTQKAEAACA
Unit nM implied. Number only.

Recorded IC50 of N[C@H]1CCCC[C@H]1Nc1cc2nc[nH]c(=O)c2c(Nc2cccc3[nH]ccc23)n1 , please.
14

Recorded IC50 of Cc1c[nH]c2c(Nc3nc(N[C@@H]4CCOC[C@@H]4N)cc4nc[nH]c(=O)c34)cccc12 , please.
47

Recorded IC50 of N[C@H]1COCC[C@H]1Nc1cc2cc[nH]c(=O)c2c(Nc2cccc3cc[nH]c23)n1 , please.
340

Recorded IC50 of N[C@H]1COCC[C@H]1Nc1cc2nc[nH]c(=O)c2c(Nc2cccc3cc[nH]c23)n1 , please.
375
